- assay-info: NCI Yeast Anticancer Drug Screen. Data for the cln2 rad14 strain (AID 165);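 further: 0% = growth equal to vehicle treated cultures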
- test-settings: S. cerevisiae cln2 rad14 strain, hits give high values; at 50.0 µM unless noted
Compounds without any hit were thinned out: in the full panel of roughly 79,000, 15% have a hit.

{"molecule": "O=[N+]([O-])c1ccc(/C=N/Nc2nnc3c4ccccc4c4ncccc4c3n2)o1", "growth inhibition / %": -29.8}
{"molecule": "CC(C)C1=CCC2C(=C1)CCC1C(C)(N=C=O)CCCC21C (stereo unspecified)", "growth inhibition / %": -51.8}
{"molecule": "CCOc1cc2c(cc1C(C)c1ccc(OC)c(C)c1)OCO2 (stereo unspecified)", "growth inhibition / %": 74}
{"molecule": "CCOC(=O)C1=C(C(=O)c2ccc(OC)cc2)C(c2ccc([N+](=O)[O-])cc2)C(C(=O)c2ccc(OC)cc2)=C(C(=O)OCC)N1", "growth inhibition / %": 14.1}
{"molecule": "COc1ccc(-n2cnc3c2NC(C)(C)N=C3C(N)=O)c(OC)c1", "growth inhibition / %": 24.9}
{"molecule": "CCOc1ccccc1Nc1ccc(N)cc1S(=O)(=O)O", "growth inhibition / %": -6.2}
{"molecule": "CCOC(=O)CSC#N", "growth inhibition / %": 7.4}
{"molecule": "CC(C)OC(=O)CC1NS(=O)(=O)c2ccccc21 (stereo unspecified)", "growth inhibition / %": 24.6}
{"molecule": "COc1ccc2c(c1)-c1c(ccc(OC)c1O)CC(c1ccccc1)[N+](C)(C)CC2 (stereo unspecified)", "growth inhibition / %": -12.4}
{"molecule": "Cc1cccc(C(=O)NNC(=O)C(=O)NNC(=O)c2cccc(C)c2)c1", "growth inhibition / %": -0.05}
{"molecule": "Cc1cc(C)c([N+](=O)[O-])cc1N", "growth inhibition / %": 13.5}
